Reference for the values: PubChem BioAssay AID463173

Catalogue of survival readings, one per entry.
System: DeltatarO mutant
Assay: S. aureus survival, RN4220 and DeltatarO strains – OD600, teichoic acid synthesis inhibitors, primary screen (AID 463173)
Conditions: S. aureus RN4220 wild type/DeltatarO growth, OD600, 18 h, hits give low values, screened at 18.75 µg/mL (by protocol)
The whole screen tested about 52,000 compounds, of which about 4,300 (8.3%) were called active. The entries come from a sample that favours actives as a whole.
// note: answer is a bare numeric in %

Use these answered entries as a reference point.
- molecule: "CCOc1ccccc1CNC(=O)CN(c1ccc(C)cc1)S(=O)(=O)N(C)C"
  survival (%): 70
- molecule: "CCOC(=O)CN1N=NC2C(=O)N(c3ccccc3)C(=O)C21 (stereo not given)"
  survival (%): 92
- molecule: "COc1ccc(NC(=O)Cn2ccn(-c3ccc(C)c(C)c3)c(=O)c2=O)cc1Cl"
  survival (%): 72
- molecule: "Cc1ccccc1NC(=O)c1c(NC(=O)C(F)(F)F)sc2c1CCCCC2"
  survival (%): -3

Could you now consider this next molecule?
Lab book: survival of O=C(NC1CCS(=O)(=O)C1)Sc1ccccc1 (stereo not given) noted as 96

###

System: DeltatarO mutant
Assay: S. aureus survival, RN4220 and DeltatarO strains – OD600, teichoic acid synthesis inhibitors, primary screen (AID 463173)
Settings: S. aureus RN4220 wild type/DeltatarO growth, OD600, 18 h, hits give low values, screened at 18.75 µg/mL (by protocol)
Among all 52,000 compounds or so, about 4,300 (8.3%) were called active. For the sample, actives were picked, then their nearest neighbours and some compounds at random.
Catalogue of survival readings, one per entry.
// note: answer is a bare numeric in %

Use these answered entries as a reference point.
- compound: "Cc1c(C(=O)Nc2ccc(F)cc2)sc2nc[nH]c(=O)c12"
  assay value: 122
- compound: "CCOC(=O)c1c(-c2ccccc2)oc2ccc(OCc3cccc(Br)c3)cc12"
  assay value: 38
- compound: "CC(C)Nc1ccc(-c2nc(-c3ccco3)no2)cc1[N+](=O)[O-]"
  assay value: 107
- compound: "CCC(Nc1ccc(-c2nc(-c3ccco3)no2)cc1[N+](=O)[O-])c1ccccc1 (configuration not stated)"
  assay value: 53
- compound: "CCC(Nc1ccc(-c2nc(-c3cccnc3)no2)cc1[N+](=O)[O-])c1ccccc1 (configuration not stated)"
  assay value: 64

The compound CC(C)Nc1ccc(-c2nc(-c3ccccn3)no2)cc1[N+](=O)[O-] , when measured on DeltatarO mutant, yielded survival of 38

The compound COc1ccc(C)cc1S(=O)(=O)N1CCN(c2cccc(Cl)c2)CC1 , when measured on DeltatarO mutant, yielded survival of 59

###

System: DeltatarO mutant
Assay: S. aureus survival, RN4220 and DeltatarO strains – OD600, teichoic acid synthesis inhibitors, primary screen (AID 463173)
Conditions: S. aureus RN4220 wild type/DeltatarO growth, OD600, 18 h, hits give low values, screened at 18.75 µg/mL (by protocol)
Among all 52,000 compounds or so, about 4,300 (8.3%) were called active. The sample holds actives, similar compounds and a random draw of the others, so the mix is not that of the screen.
Catalogue of survival readings, one per entry.
// note: answer is a bare numeric in %

- compound: "Cc1cc(C)cc(Nc2sc(C(=O)c3ccccc3)c(N)c2S(=O)(=O)c2ccccc2)c1"
  reading unit: "%"
  survival: 101
- compound: "CC(C)(C)C(=O)Nc1cccc(C(=O)OCc2cc(=O)n3nc(C4CCCCC4)sc3n2)c1"
  reading unit: "%"
  survival: 124
- compound: "C=CCc1ccccc1OCCSc1nc(-c2ccccc2F)nc2cc(=O)[nH]n12"
  reading unit: "%"
  survival: 99
- compound: "Cc1ccc(CNC(=O)c2cc3c(=O)n(Cc4ccco4)ccc3nc2C)cc1"
  reading unit: "%"
  survival: 87

Lab book: survival of O=C(Cn1nc2c(cc1=O)CCCC2)NCc1ccccc1Cl noted as 144

Lab book: survival of CC(=O)N1c2ccc(S(=O)(=O)NCC3CCC(C(=O)NCCC(C)C)CC3)cc2CC1C (configuration not stated) noted as 102

Lab book: survival of CCc1ccc(NC(=O)CSc2nccn2-c2ccc(OC)cc2)cc1 noted as 107
